tested on: SF-268 CNS; assay: NCI tumour cell line growth inhibition, 48 h
Consider the following compounds; for each one, report its GI50.

Request: Recall and state the measured GI50 for C=CCC(N[C@H](CO)c1ccccc1)c1cn(S(=O)(=O)c2ccc(C)cc2)c2ccccc12 (some centres undefined) .
Response: > 100 µM

Request: Recall and state the measured GI50 for O=C(O)c1cc(Cc2ccc(O)c(C(=O)O)c2)ccc1O (tested in a mixture with another compound) .
Response: 7.88 µM

Request: Recall and state the measured GI50 for c1ccc2cc(Cn3c[n+](Cc4ccc5ccccc5c4)c4ccccc43)ccc2c1 .
Response: 1.31 µM

Request: Recall and state the measured GI50 for O=C(Nc1ccccc1O)c1ccc(CNC(=O)c2sccc2Nc2ccnc(C(F)(F)F)c2)cc1 .
Response: 7.04 µM

Request: Recall and state the measured GI50 for CC(=O)[C-](C(C)=O)c1ccccc1.CC(=O)[C-](C(C)=O)c1ccccc1.CC[O-].CC[O-].[Ti+4] .
Response: > 100 µM

Request: Recall and state the measured GI50 for CC(C)(C)OC(=O)CN1CCc2c(sc3ncnc(N/N=C/c4cccc5ccccc45)c23)C1 .
Response: 3.59 µM

Request: Recall and state the measured GI50 for C/C1=C\C/C=C(\C)[C@H]2CC(CC/C(C)=C/CC1)[C@](C)(C=O)O2 .
Response: > 100 µM

Request: Recall and state the measured GI50 for CCCCCCC#CC#Cc1cccc(=O)o1 .
Response: 2.69 µM

Request: Recall and state the measured GI50 for COc1ccc(CC(NC(=O)[C@H](C)NC(=O)CN2CCOCC2)C(=O)N[C@@H](Cc2ccccc2)C(=O)[C@@]2(C)CO2)cc1 (some centres undefined) .
Response: 0.245 µM

Request: Recall and state the measured GI50 for O=C(Nc1ccc(Cl)cc1)c1cc(S(=O)(=O)Nc2nnc(-c3ccccc3)c(-c3ccccc3)n2)c(SCc2ccccc2)cc1Cl .
Response: 26.9 µM

Request: Recall and state the measured GI50 for CNC(=O)OC1C(O[C@H]2C[C@H]3[C@@H]4CC=C5C[C@@H](O)CC[C@]5(C)[C@H]4CC[C@]3(C)[C@H]2[C@H](C)C(=O)CCC(C)C)OCC(O)C1OC1OCC(O)C(O)C1OC(=O)c1ccc(OC)cc1 (some centres undefined) .
Response: 0.0226 µM

Request: Recall and state the measured GI50 for O=C(Nc1cccc(O)c1)c1cccc(NC2=C(Cl)C(=O)N(Cc3ccccc3)C2=O)c1 .
Response: 21.8 µM

Request: Recall and state the measured GI50 for CCOC(=O)N[C@H]1CCc2c(Br)c(OC)c(OC)c(OC)c2-c2ccc(SC)c(=O)cc21 .
Response: 0.0125 µM

Request: Recall and state the measured GI50 for O=C1c2ccn(CCCCN3CCCCC3)c2C(=O)c2c1c(O)c1ccccc1c2O .
Response: 14.9 µM

Request: Recall and state the measured GI50 for N[C@@H]1CCCC[C@@H]1N.O=C([O-])CN(CP(=O)([O-])[O-])CP(=O)([O-])[O-].[Pt+2] .
Response: > 100 µM

Request: Recall and state the measured GI50 for C1=C(c2ccccc2)C(c2ccc(OCCN3CCCCC3)cc2)Oc2ccccc21 (centres undefined) .
Response: 2.66 µM

Request: Recall and state the measured GI50 for COc1ccc(-c2nnc(N3CCN(C(=O)CN4CCN(c5ccc(Cl)cc5)CC4)CC3)nc2-c2ccc(OC)cc2)cc1 .
Response: > 100 µM

Request: Recall and state the measured GI50 for COc1cc(NCc2ccccc2O)c2ncccc2c1 .
Response: 22.5 µM

Request: Recall and state the measured GI50 for NC(=S)N/N=C\c1nccc2c(N)cccc12 .
Response: 0.242 µM
